# ASSAYED SYSTEM: T1, B Lymphocyte Stimulator, soluble form (human) (human, UniProt Q9Y275 134-285, biotinylated with NHS-biotin where used as biotinylated B Lymphocyte Stimulator)
# T1 construct: Coated on plastic, captured on streptavidin plates, amine-coupled to a CM5 chip or free in solution, depending on the assay; also called BLyS; immobilized B Lymphocyte Stimulator
# RUN DESCRIPTION: phage ELISA
QUANTITY MEASURED: binding result

INSERT INTO measurements (binder, quantity_measured, result) VALUES
  ('I067F05 (scFv) scFv: QVQLQQSGAEVKKPGSSVKVSCKASGGTFSSYAISWVRQAPGQGLEWMGRIIPIVNMANYAQKFQGRVTLTADKSTGTAYMELTSLRSEDTAVYYCARENYDSLTGYYGAFDIWGKGTMVTVSSGGGGSGGGGSGGGGSQSVLTQPASVSGSPGQSITISCTGTSSDVGGYNYVSWYQQHPGKAPKLMIYEGSKRPSGVSNRFSGSKSGNTASLTISGLQAEDEADYYCSSYTTRSTRVFGGGTKLTVLG', 'binding result', 'binds'),
  ('I073F04 (scFv) scFv: QVQLQQSGAEVKKPGSSVKVSCKASGGTFRSYAFSWVRQAPGQGLEWMGYIVPVFGTATYAQNFQGRVTITADELTTTAFMELSSLTSEDTAVYYCARSLATRPLGMDVWGRGTTVTVSSGGGGSGGGGSGGGGSQSVLTQPASVSGSPGQSITISCTGTSSDVGGYNYVSWYQQHPGKAPKLMIYEGSKRPSGVSNRFSGSKSGNTASLTISGLQAEDEADYYCSSYTTRSTRVFGGGTKLTVLG', 'binding result', 'binds'),
  ('I064C07 (scFv) scFv: QVQLVQSGAEVKKPGSSVKVSCKASGGTFSSYAISWVRQAPGQGLEWMGGIIPIFGTANYAQKFQGRVTITADDLTRTAYMEMSSLKFEDTAVYYCASSEGTIFGVDWGRGTLVTVSSGGGGSGGGGSGGGGSDIQMTQSPSFLSASVGDRVTITCRASQGINNYLAWYQQKPGRAPKLLMYAASSLQSGVPSRFSGSGSGTDFTLTISSLQPEDFATYYCLQDSDYPLTFGGGTKLEIKR', 'binding result', 'binds');
